target: HIV-1 envelope glycoprotein (gp120) of virus 92US727 (HIV-1); experiment: cell-based or functional assay
Neutralization IC50 reference
Quantity kind: Neutralization IC50

- 1.1.78-1 (antibody, human IgG1, kappa, V domains shown) VH: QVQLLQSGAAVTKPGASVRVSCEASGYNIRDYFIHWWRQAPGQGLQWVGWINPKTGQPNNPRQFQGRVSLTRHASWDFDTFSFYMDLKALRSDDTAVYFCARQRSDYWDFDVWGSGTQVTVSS VL: DIQMTQSPSSLSASVGDTATITCQANGYLNWYQQRRGKAPKLLIYDGSKLERGVPSRFSGRRWGQEYHLTINNLQPEDIATYFCQVYEFFGPGTRLDLKR: > 50 µg/mL
- 2.3.7-1 (antibody, human IgG1, kappa, V domains shown) VH: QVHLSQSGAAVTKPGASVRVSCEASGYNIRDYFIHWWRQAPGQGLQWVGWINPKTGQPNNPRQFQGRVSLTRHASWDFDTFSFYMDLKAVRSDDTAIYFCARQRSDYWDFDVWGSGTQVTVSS VL: DIQMTQSPSSLSARVGDRATITCQANGYLNWYQQRRGKAPKLLIYDGSKLERGVPARFSGSRWGQEYTLTISSLQPEDVATYFCQVYEFFGPGTRLDLKR: > 50 µg/mL
- 1.1.117-1 (antibody, human IgG1, kappa, V domains shown) VH: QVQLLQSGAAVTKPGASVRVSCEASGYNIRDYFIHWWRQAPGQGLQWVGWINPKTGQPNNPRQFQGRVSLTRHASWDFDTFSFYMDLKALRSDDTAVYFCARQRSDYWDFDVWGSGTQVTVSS VL: DIQMTQSPSSLSASVGDTATITCQANGYLNWYQQRRGKAPKLLIYDGSKLERGVPSRFSGRRWGQEYILTINNLQPEDIATYFCQVYEFFGPGTRLDLKR: > 50 µg/mL
- 2.3.12-1 (antibody, human IgG1, kappa, V domains shown) VH: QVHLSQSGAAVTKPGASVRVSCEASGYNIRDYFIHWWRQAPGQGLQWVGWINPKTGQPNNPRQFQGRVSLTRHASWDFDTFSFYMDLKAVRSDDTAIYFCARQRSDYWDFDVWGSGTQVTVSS VL: DIQMTQSPSSLSARVGDTATITCQANGYLNWYQQRRGKAPKLLIYDGSKLERGVPARFSGRRWGQEYILTINNLQPEDVATYFCQVYEFFGPGTRLDLKR: > 50 µg/mL
- 3.1.12-1 (antibody, human IgG1, kappa, V domains shown) VH: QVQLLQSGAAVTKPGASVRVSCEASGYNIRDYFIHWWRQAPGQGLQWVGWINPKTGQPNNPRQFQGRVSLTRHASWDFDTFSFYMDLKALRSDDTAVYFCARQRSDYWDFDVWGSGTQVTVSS VL: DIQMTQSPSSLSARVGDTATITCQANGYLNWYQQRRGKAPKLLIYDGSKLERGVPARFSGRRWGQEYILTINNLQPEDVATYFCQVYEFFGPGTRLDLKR: > 41 µg/mL

Provenance of the data: patent US20220089698A1
